# GI50 per record follows
test system: MDA-MB-468 cell line; test: Inhibition of proliferation of MDA-MB-468 cancer cells (Cell Titer-Glo); type: cell-based; settings: Homo sapiens, MDA-MB-468, 72 hours

Solved entries:
COc1cc(P(C)(C)=O)ccc1Nc1nc(NC2CCCCC2)c2c(C#N)c[nH]c2n1 | < 50 nM
COc1cc(S(=O)(=O)N2CCOCC2)ccc1Nc1nc(N[C@@H]2CCOC2)c2c(C(F)(F)F)c[nH]c2n1 | 301 to 1000 nM
CCNc1nc(Nc2ccc(S(=O)(=O)N3CCC(N4CCOCC4)CC3)c3c2OCC3)nc2[nH]cc(C(F)(F)F)c12 | 101 to 300 nM

query: Given `N#Cc1c[nH]c2nc(Nc3ccc(C(=O)N4CCOCC4)c4c3OCO4)nc(NC3CCCC3)c12` , state its recorded GI50.
result: 51 to 100 nM
